- target-desc: IRAK4 (Homo sapiens, UniProt Q9NWZ3)
- Construct: endogenous in cells
- Sequence (Q9NWZ3 1-460): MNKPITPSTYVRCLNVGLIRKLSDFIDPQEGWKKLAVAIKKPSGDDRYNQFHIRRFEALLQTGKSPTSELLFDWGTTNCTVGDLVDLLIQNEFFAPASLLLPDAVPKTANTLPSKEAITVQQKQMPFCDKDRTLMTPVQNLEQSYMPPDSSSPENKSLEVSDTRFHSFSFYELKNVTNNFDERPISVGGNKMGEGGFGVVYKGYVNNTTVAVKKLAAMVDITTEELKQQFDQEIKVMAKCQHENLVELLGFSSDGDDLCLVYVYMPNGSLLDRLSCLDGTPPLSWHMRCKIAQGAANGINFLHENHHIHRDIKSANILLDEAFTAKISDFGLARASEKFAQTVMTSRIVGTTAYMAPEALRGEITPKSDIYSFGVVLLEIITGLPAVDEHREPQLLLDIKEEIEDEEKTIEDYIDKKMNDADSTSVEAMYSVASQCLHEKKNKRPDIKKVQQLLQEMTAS
- experimental-details: ALE THP1 HTRF (Advanced Lipoxidation End Product THP1 Homogeneous Time Resolved Fluorescence)
- assay-setup: THP1 cells
Entries and their measured pEC50 follow.
Just the number, please; pEC50 means minus log10 of the concentration in mol/L.

These recorded examples may help you get a feel for the data.
compound	pEC50
C[C@H](C#N)Nc1cc(-n2ncc3cc(C#N)c(N)nc32)ncc1C(=O)N[C@H]1CC[C@H](CCN2CCN(c3ccc(C4CCC(=O)NC4=O)cc3)CC2)CC1 (stereo partly drawn)	9.00
CC(C)(C)Nc1cc(-n2ncc3cc(C#N)cnc32)ncc1C(=O)NC1CCC(CCN2CCN(c3ccc(C4CCC(=O)NC4=O)cc3)CC2)CC1 (stereo not drawn)	7.33
CC(C)(O)CNc1cc(-n2ncc3cc(C#N)cnc32)ncc1C(=O)N[C@H]1CC[C@H](CCN2CCN(c3ccc(C4CCC(=O)NC4=O)cc3)CC2)CC1 (stereo partly drawn)	7.49
CS(=O)(=O)N1CCC(Nc2cc(Nc3ccc4ncsc4c3)ncc2C(=O)NC2CCC(C(=O)N3CCN(c4ccc5c(c4)C(=O)N(C4CCC(=O)NC4=O)C5=O)CC3)CC2)CC1 (stereo not drawn)	7.33
N#Cc1cnc2c(cnn2-c2cc(NC3CCCC3)c(C(=O)NC3CCC(C(=O)NC4CCN(c5ccc(C6CCC(=O)NC6=O)cc5)CC4)CC3)cn2)c1 (stereo not drawn)	6.84

Data point: N#Cc1cnc2c(cnn2-c2cc(NC3CCCC3)c(-c3cn([C@H]4CC[C@H](CN5CCN(CC(=O)Nc6ccc(C7CCC(=O)NC7=O)cc6)CC5)CC4)nn3)cn2)c1 (stereo partly drawn) ; pEC50 = 6.56

###

- experimental-details: Pharmacokinetic studies in mice (plasma PK, IV and PO)
- Format: in vivo
- assay-setup: mouse; female C57B16 mice, plasma, PO 3.00 mg/kg
result-type: AUC(0-t) (µM·h)
Numeric only. Scale: µM·h

CC[C@@H]1CN(CC[C@H]2CC[C@H](c3cn(-c4cnc(-n5ncc6cc(C#N)cnc65)cc4N[C@H](C)C#N)nn3)CC2)CCN1c1ccc(N2CCC(=O)NC2=O)cn1 has a reported AUC(0-t) of 1.41

###

- target-desc: IRAK4 (Homo sapiens, UniProt Q9NWZ3)
- Construct: endogenous in cells; host or cells: THP-1 cells
- Sequence (Q9NWZ3 1-460): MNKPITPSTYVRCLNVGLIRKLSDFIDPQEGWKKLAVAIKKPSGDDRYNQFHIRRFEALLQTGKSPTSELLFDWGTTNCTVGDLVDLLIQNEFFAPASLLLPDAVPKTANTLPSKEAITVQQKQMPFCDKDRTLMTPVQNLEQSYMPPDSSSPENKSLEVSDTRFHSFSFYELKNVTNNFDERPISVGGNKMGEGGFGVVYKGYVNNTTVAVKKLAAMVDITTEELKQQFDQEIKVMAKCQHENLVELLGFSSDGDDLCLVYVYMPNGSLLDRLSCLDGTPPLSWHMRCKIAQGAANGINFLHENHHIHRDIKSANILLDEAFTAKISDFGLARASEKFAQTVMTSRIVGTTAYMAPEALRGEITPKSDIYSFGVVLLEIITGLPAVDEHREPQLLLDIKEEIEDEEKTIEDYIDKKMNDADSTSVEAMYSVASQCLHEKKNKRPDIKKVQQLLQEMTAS
- experimental-details: LVL THP1 HTRF (THP1 Homogeneous Time Resolved Fluorescence)
- Format: cell-based
- assay-setup: THP1 cells, 18 h incubation with compound, read-out: LVL THP1 HTRF EC50
Each record here notes measured DC50.
Quick reminder: number only, in nM, skip the unit.

Field: example entries. Status: answers known.
molecule	result-type	recorded-result
C[C@H](C#N)Nc1cc(-n2ncc3cc(C#N)cnc32)ncc1-n1cc([C@H]2CC[C@](O)(CCN3CCN(c4ccc([C@@]5(C)CCC(=O)NC5=O)cn4)CC3)CC2)nn1 (single isomer, unassigned) [P-293]	DC50	65.8
N#Cc1cnc2c(cnn2-c2cc(N[C@@H]3CCOC3)c(-n3cc([C@H]4CC[C@H](CCN5CCN(c6ccc(C7CCC(=O)NC7=O)cc6)CC5)CC4)nn3)cn2)c1 (stereo in doubt)	DC50	4.8
C[C@H](C#N)Nc1cc(-n2ncc3cc(C#N)cnc32)ncc1-n1cc([C@H]2CC[C@H](CCN3CCN(c4ccc(N5CCC(=O)NC5=O)cn4)[C@@H](C)C3)CC2)nn1	DC50	179
C[C@H](C#N)Nc1cc(-n2ncc3cc(C#N)cnc32)ncc1-n1cc([C@H]2CC[C@H](CCN3CCN(c4cnc(N5CCC(=O)NC5=O)cn4)[C@H](C)C3)CC2)nn1	DC50	53.7

Reported DC50 of C[C@H](C#N)Nc1cc(-n2ncc3cc(C#N)c(N)nc32)ncc1-n1cc([C@H]2CC[C@H](CCN3CCN(c4cnc([C@@]5(C)CCC(=O)NC5=O)cn4)CC3)CC2)nn1 (single isomer, unassigned) [P-267] : 94.7

###

Reported DC50 values for a set of compounds
- target-desc: IRAK4 (Homo sapiens)
- Construct: endogenous in cells; host or cells: THP-1 cells
- experimental-details: LVL THP1 HTRF (THP1 Homogeneous Time Resolved Fluorescence)
- Type: cell-based
- assay-setup: THP1 cells, 18 h incubation with compound, read-out: LVL THP1 HTRF EC50
Please state the figure in nM; there is no need to write the unit.

compound	DC50 / nM
C[C@H](C#N)Nc1cc(-n2ncc3cc(C#N)c(N)nc32)ncc1-n1cc([C@H]2CC[C@H](CCN3CC[C@H]4[C@@H]3CCN4c3ccc([C@@]4(C)CCC(=O)NC4=O)cc3)CC2)nn1 (single isomer, unassigned) [P-487]	8
C[C@H](C#N)Nc1cc(-n2ncc3cc(C#N)cnc32)ncc1-n1cc(C2CCC(CCN3CCN(c4ccc([C@@]5(C)CCC(=O)NC5=O)cc4)[C@H](C)C3)CC2)nn1 (stereo partly shown)	165
C[C@H](C#N)Nc1cc(-n2ncc3cc(C#N)cnc32)ncc1-n1cc([C@H]2CC[C@H](CCN3C[C@@H]4CN(c5ccc(N6CCC(=O)NC6=O)cc5)C[C@@H]4C3)CC2)nn1 (single isomer, unassigned)	96.7
N#Cc1cnc2c(cnn2-c2cc(NCC3CCOCC3)c(-n3cc([C@H]4CC[C@H](CCN5CCN(c6ccc(C7CCC(=O)NC7=O)cc6)CC5)CC4)nn3)cn2)c1 (stereo partly shown)	35.8
COc1cnc(Nc2cc(N[C@H](C)C#N)c(-n3cc([C@H]4CC[C@H](CCN5CCN(c6ccc(C7CCC(=O)NC7=O)cc6)CC5)CC4)nn3)cn2)nc1 (stereo partly shown)	24
C[C@H](C#N)Nc1cc(-n2ncc3cc(C#N)cnc32)ncc1-n1cc([C@H]2CC[C@H](CCN3CCC(c4cccc5c(N6CCC(=O)NC6=O)nn(C)c45)CC3)CC2)nn1	29.8

The compound listed as C[C@H](C#N)Nc1cc(-n2ncc3cc(C#N)cnc32)ncc1-c1ncn([C@H]2CC[C@H](CCN3CCN(c4ccc(C5CCC(=O)NC5=O)cc4)CC3)CC2)n1 (stereo partly shown) shows DC50 equal to 60

Recorded DC50 (compound C[C@H](C#N)Nc1cc(-n2ncc3cc(C#N)cnc32)ncc1C(=O)N[C@H]1CC[C@H](CCN2CCN(c3ccc(N4CCC(=O)NC4=O)cc3)CC2)CC1 ): 645

For COc1nc2c(cnn2-c2cc(N[C@H](C)C#N)c(C(=O)N[C@H]3CC[C@H](CCN4CCN(c5ccc(C6CCC(=O)NC6=O)cc5)CC4)CC3)cn2)cc1C#N (stereo partly shown) the compound record lists DC50 as 51

For record C[C@H](C#N)Nc1cc(-n2ncc3cc(C#N)cnc32)ncc1C(=O)N[C@H]1CC[C@H](CCN2CC[C@H]3[C@@H]2CCN3c2ccc(N3CCC(=O)NC3=O)c(F)c2)CC1 [P-484] the listed DC50 is 1000
